Origin of values: patent US20250296992A1

Target: T1, cynomolgus monkey SLITRK6 extracellular domain linked to his tag (cynomolgus monkey, UniProt G7PVK4 27-608)
T1 construct: extracellular domain; also called cynoSLITRK6; Cyno SLITRK6; not shown: his tag
Assay: BLI; antigen ECD-his on anti-his tips, antibody as analyte; 1:1 fit;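 also: antibody at several concentrations, 180 s association then 300 s dissociation in Tris buffer at pH 6 or 7.5, rate constants from global fitting, KD computed as koff/kon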
measurement.name: koff (s⁻¹)
Numbers only, in s⁻¹.

## Input May I ask what koff has been recorded for Sirtratumab (antibody, V domains shown, Prior-art benchmark antibody; also called Sirtratuzumab) VH: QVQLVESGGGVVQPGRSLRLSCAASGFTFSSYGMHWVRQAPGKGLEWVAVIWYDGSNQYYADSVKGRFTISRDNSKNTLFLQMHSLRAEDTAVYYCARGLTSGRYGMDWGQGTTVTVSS VL: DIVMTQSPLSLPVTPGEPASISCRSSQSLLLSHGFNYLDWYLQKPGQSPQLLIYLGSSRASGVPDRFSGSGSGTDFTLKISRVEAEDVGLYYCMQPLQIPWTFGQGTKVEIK ?
## Output 0.0037
